Target: T1, AFP158/HLA-A*02:01 complex (human)
T1 construct: flowed over the chip in SPR; also called AFP158 pro
Assay: SPR, scFv captured, pMHC in flow;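 note: complex injected at several concentrations over crude scFv, association then running-buffer dissociation, KD estimated from kinetic on- and off-rate constants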
pKd: −log10 of the molar value.
measured_attribute: pKd

# binder, measured_attribute, readout_number
records = [
    ("LH98A (scFv, AS170036 VL1VH1 scFv mutein; also called AS170036 VL1VH1-VLH98A) scFv: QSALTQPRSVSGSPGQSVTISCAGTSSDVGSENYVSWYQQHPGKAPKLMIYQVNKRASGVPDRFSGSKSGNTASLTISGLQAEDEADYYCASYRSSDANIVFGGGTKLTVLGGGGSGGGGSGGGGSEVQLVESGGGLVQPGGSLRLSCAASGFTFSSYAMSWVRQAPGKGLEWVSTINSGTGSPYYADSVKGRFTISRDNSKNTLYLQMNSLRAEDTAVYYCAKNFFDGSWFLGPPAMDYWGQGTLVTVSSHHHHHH", "pKd", 6.96),
    ("LH98V (scFv, AS170036 VL1VH1 scFv mutein; also called AS170036 VL1VH1-VLH98V) scFv: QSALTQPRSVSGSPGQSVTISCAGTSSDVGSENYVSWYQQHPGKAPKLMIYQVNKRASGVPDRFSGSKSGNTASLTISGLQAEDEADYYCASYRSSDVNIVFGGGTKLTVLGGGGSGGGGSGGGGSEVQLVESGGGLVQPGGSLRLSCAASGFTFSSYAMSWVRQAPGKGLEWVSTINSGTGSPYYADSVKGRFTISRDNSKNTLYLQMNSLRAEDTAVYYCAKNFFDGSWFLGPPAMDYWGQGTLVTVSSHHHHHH", "pKd", 7.11),
]
